The measurements presented in this section are drawn from ChEMBL document CHEMBL1649420.

Target: Interstitial collagenase (Homo sapiens) (UniProt P03956);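 also: recombinant human enzyme, with inhibition measured after 30 min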
Sequence (P03956 whole entry): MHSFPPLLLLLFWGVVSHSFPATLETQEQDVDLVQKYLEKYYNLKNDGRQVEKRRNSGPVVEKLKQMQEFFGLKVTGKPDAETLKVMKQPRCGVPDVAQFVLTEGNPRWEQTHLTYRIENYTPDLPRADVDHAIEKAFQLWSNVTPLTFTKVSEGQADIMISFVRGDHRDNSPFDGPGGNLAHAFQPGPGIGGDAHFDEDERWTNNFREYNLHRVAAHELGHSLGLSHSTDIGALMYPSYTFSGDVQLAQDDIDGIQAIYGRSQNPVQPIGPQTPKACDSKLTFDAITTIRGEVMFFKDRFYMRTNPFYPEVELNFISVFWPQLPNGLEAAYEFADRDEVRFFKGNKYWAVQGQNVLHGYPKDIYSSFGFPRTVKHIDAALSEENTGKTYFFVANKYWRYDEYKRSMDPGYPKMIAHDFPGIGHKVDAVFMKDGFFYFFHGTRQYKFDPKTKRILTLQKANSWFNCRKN
Details: at 1 mM
readout-type: inhibition (%)

[[record]]
compound_structure = "O=C(O)c1cccnc1C(=O)O"
target_of_assay = "Interstitial collagenase (Homo sapiens) (UniProt P03956)"
result_value = 4

[[record]]
compound_structure = "Cc1ccc2cccc(O)c2n1"
target_of_assay = "Interstitial collagenase (Homo sapiens) (UniProt P03956)"
result_value = 47

[[record]]
compound_structure = "O=C1C=C(O)C(=O)c2ccccc21"
target_of_assay = "Interstitial collagenase (Homo sapiens) (UniProt P03956)"
result_value = 86

[[record]]
compound_structure = "O=C(O)c1c(O)cccc1O"
target_of_assay = "Interstitial collagenase (Homo sapiens) (UniProt P03956)"
result_value = 0

[[record]]
compound_structure = "Nc1ccc(C(=O)O)c(O)c1"
target_of_assay = "Interstitial collagenase (Homo sapiens) (UniProt P03956)"
result_value = -7

[[record]]
compound_structure = "Nc1[nH]cnc2ncnc1-2"
target_of_assay = "Interstitial collagenase (Homo sapiens) (UniProt P03956)"
result_value = 17

[[record]]
compound_structure = "O=C(O)c1ccc(O)cc1O"
target_of_assay = "Interstitial collagenase (Homo sapiens) (UniProt P03956)"
result_value = 14

[[record]]
compound_structure = "O=C(O)c1ccc2ccccc2n1"
target_of_assay = "Interstitial collagenase (Homo sapiens) (UniProt P03956)"
result_value = 52

